- assayedSystem: recombinant human soluble γ2 δ3TCR-FC (wild type) (human) (UniProt B7Z8K6)
- assayProtocol: Octet, γ2δ3TCR-hFc captured on anti-human Fc biosensor; row antibody δ3-58 taken as first (saturating), column antibody as second; 5 µg/mL each; note: unit not given here
assayEndpoint: paired-competition value (Octet signal of the second antibody per paragraph 256)
Simply state the number, no unit and no words.

**Q:** Give reported paired-competition value (Octet signal of the second antibody per paragraph 256) value for δ3-31 (antibody, V domains shown) VH: DVQLQESGPDLVKPSQSLSLTCTVTGYSITSGYGWHWIRQFPGNKLEWMGYISFSGSNKYNPSLKSRISITRDTSKNQFFLQLNSVTTEDTATYYCANLDYWGQGTTLTVSS VL: DIQMTQRTSSLSASLGDRVTISCSASQDITNYLHWFQQKPDGTVKLLIYYTSTLHSGVPSRFSGSGSGTDYSLTISNLEPEDIATYYCQQYSKLPYTFGGGTKLEITR
**A:** 0.38
